Reference for the values: patent US20250206820A1

measured_target: ILT3 on target cells (MOLM13, OCI-AML-2, NALM-1, THP-1, MM1S, H929, U226B1 and other lines) (human) (UniProt Q8NHJ6)
Sequence (Q8NHJ6 22-448, one chain of several): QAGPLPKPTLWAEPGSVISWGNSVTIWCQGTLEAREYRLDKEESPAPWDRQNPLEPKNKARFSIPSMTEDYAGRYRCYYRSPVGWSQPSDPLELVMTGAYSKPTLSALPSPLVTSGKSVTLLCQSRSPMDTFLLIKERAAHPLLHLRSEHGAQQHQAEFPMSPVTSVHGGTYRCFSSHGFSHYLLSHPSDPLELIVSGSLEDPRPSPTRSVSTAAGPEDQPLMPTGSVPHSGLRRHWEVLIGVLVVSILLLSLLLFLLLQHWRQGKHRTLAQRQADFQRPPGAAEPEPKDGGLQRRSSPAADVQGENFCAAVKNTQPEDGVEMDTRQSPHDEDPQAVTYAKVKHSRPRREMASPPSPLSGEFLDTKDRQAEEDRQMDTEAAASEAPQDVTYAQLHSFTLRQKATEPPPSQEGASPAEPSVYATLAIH
assay_summary: cell-based or functional assay
Reported values of TDCC, EC50 for individual entries
Just the number please, in nM, no unit attached.

Recorded TDCC, EC50, per entry:
binder	TDCC, EC50 (nM)
53F10 Fab coupled with CD3 scFv 2B2 (bispecific antibody, part only; not given: CD3 scFv 2B2, V domains shown, part only) VH: EVQVVESGGGLVKPGGSLKLSCAASGFTFSDYGMHWVRQAPEKGLEWVAYISTGIITVYYADTVKGRFTMSRDNAKNTLFLQMTSLRSEDTAIYYCARADGRGAMDYWGQGTSVIVSS VL: DIQMTQTTSSLSASLGDRVTISCRASQDISNFLNWYQQKPDGTVTLLIYYTSRLHSGVPSRFSGSGSGTDYSLTISNLEQEDFATYFCQQGNTLPWTFGGGTKLEIK	0.013
48A6 Fab coupled with CD3 scFv 2B2 (bispecific antibody, part only; not given: CD3 scFv 2B2, V domains shown, part only) VH: EVQLVESGGDLMKPGGSLKLSCAASGFTFSSYGMSWVRQTPDKRLEWVATISSGGTYTFYPDSVKGRFTISRDNAKNTLYLQMSSLKSEDTAMYYCARRGWLLHYYAMDYWGQGTSVTVSS VL: NIVLTQSPASLAVSLGQRATISCRPSESVDSFGNSFMHWFQQKPGQPPKLLIYLSSKLESGVPARFSGSGSRTDFTLTIDPVEADDAATYYCQQHNEDPFTFGSGTKLEIK	0.025
16C5 Fab coupled with CD3 scFv 1G4 (bispecific antibody, part only; not given: CD3 scFv 1G4, V domains shown, part only) VH: EVQLQQSGPELVKPGASVKISCKASGYTFTDYNMDWVKQSHGKSLEWIGYIYPSNGGTGYNQKFKSKATLTVDKSSNTAYMELHSLTSEDSAVYYCARVPYYDYLYYYAMDYWGQGTSVTVSS VL: QIVLSQSPAILSASPGEKVTMACRASSSVSFMHWYQQKPGSSPQPWIYATSNLASGVPARFSGSGSGTSYSLTISRVEAEDAATYYCQQWSTNPYMYTFGGGTKLEIK	50.1

q: What does the record list as TDCC, EC50 for 12A12 Fab coupled with CD3 scFv 1G4 (bispecific antibody, part only; not given: CD3 scFv 1G4, V domains shown, part only) VH: EVQLQQSGPELVKPGASVKISCKASGYTFTDYNMDWVKQSHGKSLEWIGYIYPNNGGTGYNQKFNSKATLTVDKSSSTAYMELHSLTSEDSAVYYCASSPYYDYVGSYAMDYWGQGTSVTVSS VL: QIVLTQSPAIMSASLGERVTMTCTASSSVSSSYLHWYQQKPGSSPKLWIYSTSNLASGVPARFSGSGSGTSYSLTISSMEAEDAATYYCHQYHRSPRTFGGGTKLEIK ?
a: 251

q: Proceed to 3A3 Fab coupled with CD3 scFv 2B2 (bispecific antibody, part only; not given: CD3 scFv 2B2, V domains shown, part only) VH: QVQLKESGPGLVAPSQSLSITCTVSGFSLTSYGVHWVRQPPGKGLEWLGVIWPGGTINYNSALMSRLSISKDNSKSQVFLKLNSLQTDDTAMYYCASDKYDGGWFAYWGQGTLVTVSA VL: DIVMTQSQKFMSTSVGDRVSITCKASQNVRTAVAWYQQKPGQSPEALIYLASNRHTGVPDRFTGSGSGTDFSLSISNVQSEDLADYFCLQHLNYPLTFGSGTKLEIK
a: 0.4

q: Proceed to 48A6 Fab coupled with CD3 scFv 1G4 (bispecific antibody, part only; not given: CD3 scFv 1G4, V domains shown, part only) VH: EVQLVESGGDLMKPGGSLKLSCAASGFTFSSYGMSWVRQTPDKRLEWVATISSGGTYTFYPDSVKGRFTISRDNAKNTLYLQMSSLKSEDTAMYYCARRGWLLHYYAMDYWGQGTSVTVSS VL: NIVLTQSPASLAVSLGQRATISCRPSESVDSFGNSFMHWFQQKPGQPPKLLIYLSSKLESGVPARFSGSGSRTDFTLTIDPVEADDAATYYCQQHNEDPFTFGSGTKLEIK
a: 0.5

q: Proceed to 53F10 Fab coupled with CD3 scFv 1G4 (bispecific antibody, part only; not given: CD3 scFv 1G4, V domains shown, part only) VH: EVQVVESGGGLVKPGGSLKLSCAASGFTFSDYGMHWVRQAPEKGLEWVAYISTGIITVYYADTVKGRFTMSRDNAKNTLFLQMTSLRSEDTAIYYCARADGRGAMDYWGQGTSVIVSS VL: DIQMTQTTSSLSASLGDRVTISCRASQDISNFLNWYQQKPDGTVTLLIYYTSRLHSGVPSRFSGSGSGTDYSLTISNLEQEDFATYFCQQGNTLPWTFGGGTKLEIK
a: 2

q: Proceed to 16C5 Fab coupled with CD3 scFv 2B2 (bispecific antibody, part only; not given: CD3 scFv 2B2, V domains shown, part only) VH: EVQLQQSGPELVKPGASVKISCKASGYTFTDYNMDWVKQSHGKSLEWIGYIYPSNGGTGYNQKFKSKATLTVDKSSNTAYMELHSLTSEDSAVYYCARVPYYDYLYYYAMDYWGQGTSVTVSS VL: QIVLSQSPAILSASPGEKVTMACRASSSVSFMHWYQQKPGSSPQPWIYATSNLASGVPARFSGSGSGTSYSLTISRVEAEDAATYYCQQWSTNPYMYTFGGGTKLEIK
a: 3.16

q: Proceed to Hz45G10 Fab coupled with CD3 scFv 1G4 (bispecific antibody, part only; not given: CD3 scFv 1G4, V domains shown, part only) VH: EVQLVESGGGLVQPGGSLRLSCAASGFTFSDYGMHWVRQAPGKGLEWVAYIFSGSSTIYYADTVKGRFTISRDNAKNSLYLQMNSLRAEDTAVYYCARADGRGAMDYWGQGTLVTVSS VL: DIQMTQSPSSLSASVGDRVTITCRASQDISKFLNWYQQKPGKAPKLLIYYTSRLHSGVPSRFSGSGSGTDFTFTISSLQPEDIATYFCQQGNTLPWTFGGGTKLEIK
a: 1.26

q: Proceed to 12A12 Fab coupled with CD3 scFv 2B2 (bispecific antibody, part only; not given: CD3 scFv 2B2, V domains shown, part only) VH: EVQLQQSGPELVKPGASVKISCKASGYTFTDYNMDWVKQSHGKSLEWIGYIYPNNGGTGYNQKFNSKATLTVDKSSSTAYMELHSLTSEDSAVYYCASSPYYDYVGSYAMDYWGQGTSVTVSS VL: QIVLTQSPAIMSASLGERVTMTCTASSSVSSSYLHWYQQKPGSSPKLWIYSTSNLASGVPARFSGSGSGTSYSLTISSMEAEDAATYYCHQYHRSPRTFGGGTKLEIK
a: 3.16

q: Proceed to 3A3 Fab coupled with CD3 scFv 1G4 (bispecific antibody, part only; not given: CD3 scFv 1G4, V domains shown, part only) VH: QVQLKESGPGLVAPSQSLSITCTVSGFSLTSYGVHWVRQPPGKGLEWLGVIWPGGTINYNSALMSRLSISKDNSKSQVFLKLNSLQTDDTAMYYCASDKYDGGWFAYWGQGTLVTVSA VL: DIVMTQSQKFMSTSVGDRVSITCKASQNVRTAVAWYQQKPGQSPEALIYLASNRHTGVPDRFTGSGSGTDFSLSISNVQSEDLADYFCLQHLNYPLTFGSGTKLEIK
a: 50.1
